Biological target: T1, MepR(Q18A) (Staphylococcus aureus, UniProt Q5Y812 1-139, Q18A)
T1 sequence: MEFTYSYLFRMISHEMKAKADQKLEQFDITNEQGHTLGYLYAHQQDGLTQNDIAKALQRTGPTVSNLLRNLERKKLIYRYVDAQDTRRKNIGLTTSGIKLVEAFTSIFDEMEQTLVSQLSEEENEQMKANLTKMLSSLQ
Assay: ITC
pKd: −log10 of the molar value.
property: pKd

>>> print(df.to_string())
                                     binder  property  observed
0  mepR operator, palindromic 26-mer (dsDNA) DNA 1: TATTTAGTTAGATATCTAACTAAATA DNA 2: TATTTAGTTAGATATCTAACTAAATA       pKd      7.47

The values you see were collected from paper PMC3760248.
